SYSTEM: human urokinase-type plasminogen activator receptor (uPAR, CD87), cell-bound (human, UniProt Q03405 23-305)
Sequence (Q03405 23-305): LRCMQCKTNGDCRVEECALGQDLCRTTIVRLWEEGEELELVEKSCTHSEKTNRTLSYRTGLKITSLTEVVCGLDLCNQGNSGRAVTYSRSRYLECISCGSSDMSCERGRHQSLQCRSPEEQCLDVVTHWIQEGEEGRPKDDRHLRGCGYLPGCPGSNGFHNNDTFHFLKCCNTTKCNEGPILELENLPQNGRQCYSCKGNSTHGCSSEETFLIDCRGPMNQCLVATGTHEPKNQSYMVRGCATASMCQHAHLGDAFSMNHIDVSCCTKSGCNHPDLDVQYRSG
ASSAY SUMMARY: cell-based or functional assay
MEASURED PROPERTY: inhibition of plasminogen activation on U937 cells

binder="fully human monoclonal antibody 2.6.1 (ATCC Accession Number PTA-7475) (antibody, V domains shown, also called mAb 2.6.1) VH: EVQLVESGGGLIQPGGSLRLSCAASGFTVITNYMNWVRQAPGKGLEWVSIIYTGGSTSYADSVKGRFTVSRDNSKNTLYLHMNSLRVEDTAVYYCAREIAVAGYYGMDVWGQGTTVTVS VL: DIQMTQSPSSLSASVGDRVTITCRASQGIRNDLGWYQQKPGKAPKRLIYAASSLQSGVPSRFSGSGSGTEFTLTISSLQPEDFATYYCLQHNSYPLTFGGGTRVEIK" reported_value="> 90%"
binder="anti-uPAR monoclonal antibody 1.99.1 (antibody, V domains shown) VH: EVQLVESGGGLIQPGGSLRLSCAASGFTVRSNYMSWVRQAPGKGLEWISVIYTGGSTYYADSVKGRFSISRDNSKNTLYLQMNSLRAEDTAVYYCAREGAVAGFDYWGQGTLVTVSS VL: EIVMTQSPATLSVSPGERATLSCRASQSISSNLAWYQQKPGQAPRLLIYGASTRATGIPARFSGSGSGTEFTLTISSLQSEDFAVYYCQQYTNWPLTFGGGTKVEIK" reported_value="> 90%"

Attention now shifts to the item below.
Measured inhibition of plasminogen activation on U937 cells of anti-uPAR monoclonal antibody 4.19.1 (antibody, V domains shown) VH: EVQLVESGGGLIQPGGSLRLSCAASGFSVSSNYMNWVRQAPGKGLEWVSVIYTGGSTYYADSVKGRFTISRDNSKNTLYLQMNSLRAEDTAVYYCARDTYLYGMDVWGQGTTVTVSS VL: EIVMTQSPATLSVSPGESATLSCRTSQSVSSNLAWYQQKPGQTPRLLIYGASARATGVPARFSGSGSGTEFTLTISSLQSEDFAVYYCQQYYNWPLTFGGGTKVEIK : > 90%
